# System: Coxsackievirus A16
# ASSAY PROTOCOL: Antiviral activity against CA16 infected in human RD cells incubated for 3 days by CellTiter 96 luminescent cell viability assay
# Assay type: functional, organism-based
# TEST CONDITIONS: Enterovirus A, 72 h
# maps each entry to its IC50

MOLECULE | IC50
C#C[C@@]1(O)[C@H](O)[C@@H](CO)O[C@H]1n1ccc2c(N)ncnc21 | 710 nM
O=C(c1ccc(C(F)(F)F)cc1O)c1[nH]c(Cl)c(Cl)c1-n1c(C(=O)c2ccc(C(F)(F)F)cc2O)cc(Cl)c1Sc1nc2ccccc2s1 | 130 nM
O=C(c1ccc(C(F)(F)F)cc1O)c1[nH]c(Cl)c(Cl)c1-n1c(C(=O)c2ccc(C(F)(F)F)cc2O)cc(Cl)c1SCc1ncccn1 | 80 nM
O=C(c1ccc(C(F)(F)F)cc1O)c1[nH]c(Cl)c(Cl)c1-n1c(C(=O)c2ccc(C(F)(F)F)cc2O)cc(Cl)c1Sc1nnnn1CCO | 2510 nM

====

# ASSAY PROTOCOL: Selectivity index, ratio of CC50 for […] to IC50 for YFV-17D infected in […]
# Type: toxicity, cell-based
# TEST CONDITIONS: read-out: Ratio CC50/IC50
Note to self: selectivity ratio under 2 means yes, ties and anything higher get no.

MOLECULE | GROUP
C#C[C@@]1(O)[C@H](O)[C@@H](CO)O[C@H]1n1ccc2c(N)ncnc21 | no
O=C(c1ccc(C(F)(F)F)cc1O)c1[nH]c(Cl)c(Cl)c1-n1c(C(=O)c2ccc(C(F)(F)F)cc2O)cc(Cl)c1SCCCO | no
O=C(c1ccc(C(F)(F)F)cc1O)c1[nH]c(Cl)c(Cl)c1-n1c(C(=O)c2ccc(C(F)(F)F)cc2O)cc(Cl)c1Sc1nnnn1CCO | yes
O=C(c1ccc(C(F)(F)F)cc1O)c1[nH]c(Cl)c(Cl)c1-n1c(C(=O)c2ccc(C(F)(F)F)cc2O)cc(Cl)c1Sc1nc2ccccc2s1 | yes
O=C(c1ccc(C(F)(F)F)cc1O)c1[nH]c(Cl)c(Cl)c1-n1c(C(=O)c2ccc(C(F)(F)F)cc2O)cc(Cl)c1SCCO | no
O=C(c1ccc(C(F)(F)F)cc1O)c1[nH]c(Cl)c(Cl)c1-n1c(C(=O)c2ccc(C(F)(F)F)cc2O)cc(Cl)c1Sc1nc[nH]n1 | yes
CN(C)CCn1nnnc1Sc1c(Cl)cc(C(=O)c2ccc(C(F)(F)F)cc2O)n1-c1c(C(=O)c2ccc(C(F)(F)F)cc2O)[nH]c(Cl)c1Cl | no

====

# ASSAY PROTOCOL: Cytotoxicity against human RD cells infected with EV71 incubated for 3 days by CellTiter 96 luminescent cell viability assay
# Type: toxicity, cell-based
# TEST CONDITIONS: time 3 day

MOLECULE | UNITS TEXT | QUAL | CC50 at 72 h
CN(C)CCn1nnnc1Sc1c(Cl)cc(C(=O)c2ccc(C(F)(F)F)cc2O)n1-c1c(C(=O)c2ccc(C(F)(F)F)cc2O)[nH]c(Cl)c1Cl | µM | = | 3.17
C#C[C@@]1(O)[C@H](O)[C@@H](CO)O[C@H]1n1ccc2c(N)ncnc21 | µM | > | 20
O=C(c1ccc(C(F)(F)F)cc1O)c1[nH]c(Cl)c(Cl)c1-n1c(C(=O)c2ccc(C(F)(F)F)cc2O)cc(Cl)c1Sc1nnnn1CCO | µM | = | 10.8
O=C(c1ccc(C(F)(F)F)cc1O)c1[nH]c(Cl)c(Cl)c1-n1c(C(=O)c2ccc(C(F)(F)F)cc2O)cc(Cl)c1SCc1ccccn1 | µM | = | 0.24

====

# maps each entry to its selectivity ratio
# ASSAY PROTOCOL: Selectivity index, ratio of CC50 for […] to IC50 for ZIKV-SMGC-1 infected in […]
# Type: toxicity, cell-based
# TEST CONDITIONS: read-out: Ratio CC50/IC50
MEASURED PROPERTY: selectivity ratio

MOLECULE | MEASURED PROPERTY | QUAL | REPORTED RESULT
Cn1nnnc1Sc1c(Cl)cc(C(=O)c2ccc(C(F)(F)F)cc2O)n1-c1c(C(=O)c2ccc(C(F)(F)F)cc2O)[nH]c(Cl)c1Cl | selectivity ratio | = | 2.52
O=C(c1ccc(C(F)(F)F)cc1O)c1[nH]c(Cl)c(Cl)c1-n1c(C(=O)c2ccc(C(F)(F)F)cc2O)cc(Cl)c1SCc1cccnc1 | selectivity ratio | = | 1.14
O=C(c1ccc(C(F)(F)F)cc1O)c1[nH]c(Cl)c(Cl)c1-n1c(C(=O)c2ccc(C(F)(F)F)cc2O)cc(Cl)c1Sc1nc2cccnc2[nH]1 | selectivity ratio | = | 0.54
O=C(c1ccc(C(F)(F)F)cc1O)c1[nH]c(Cl)c(Cl)c1-n1c(C(=O)c2ccc(C(F)(F)F)cc2O)cc(Cl)c1SCCc1ccccn1 | selectivity ratio | = | 4.07
O=C(c1ccc(C(F)(F)F)cc1O)c1[nH]c(Cl)c(Cl)c1-n1c(C(=O)c2ccc(C(F)(F)F)cc2O)cc(Cl)c1Sc1nnnn1CCO | selectivity ratio | = | 1.25
O=C(c1ccc(C(F)(F)F)cc1O)c1[nH]c(Cl)c(Cl)c1-n1c(C(=O)c2ccc(C(F)(F)F)cc2O)cc(Cl)c1Sc1nc2ccccc2[nH]1 | selectivity ratio | = | 1.75
O=C(c1ccc(C(F)(F)F)cc1O)c1[nH]c(Cl)c(Cl)c1-n1c(C(=O)c2ccc(C(F)(F)F)cc2O)cc(Cl)c1SCCO | selectivity ratio | = | 7.13
O=C(c1ccc(C(F)(F)F)cc1O)c1[nH]c(Cl)c(Cl)c1-n1c(C(=O)c2ccc(C(F)(F)F)cc2O)cc(Cl)c1Sc1nc2ccccc2o1 | selectivity ratio | = | 5
O=C(c1ccc(C(F)(F)F)cc1O)c1[nH]c(Cl)c(Cl)c1-n1c(C(=O)c2ccc(C(F)(F)F)cc2O)cc(Cl)c1SCCCO | selectivity ratio | = | 14.2
C#C[C@@]1(O)[C@H](O)[C@@H](CO)O[C@H]1n1ccc2c(N)ncnc21 | selectivity ratio | > | 12.3
O=C(c1ccc(C(F)(F)F)cc1O)c1[nH]c(Cl)c(Cl)c1-n1c(C(=O)c2ccc(C(F)(F)F)cc2O)cc(Cl)c1Sc1ncc[nH]1 | selectivity ratio | = | 3.87
O=C(c1ccc(C(F)(F)F)cc1O)c1[nH]c(Cl)c(Cl)c1-n1c(C(=O)c2ccc(C(F)(F)F)cc2O)cc(Cl)c1Sc1cnccn1 | selectivity ratio | = | 5.85
O=C(c1ccc(C(F)(F)F)cc1O)c1[nH]c(Cl)c(Cl)c1-n1c(C(=O)c2ccc(C(F)(F)F)cc2O)cc(Cl)c1Sc1nc2ccccc2s1 | selectivity ratio | = | 0.12
O=C(c1ccc(C(F)(F)F)cc1O)c1[nH]c(Cl)c(Cl)c1-n1c(C(=O)c2ccc(C(F)(F)F)cc2O)cc(Cl)c1Sc1nc[nH]n1 | selectivity ratio | = | 2.44
Cc1nnc(Sc2c(Cl)cc(C(=O)c3ccc(C(F)(F)F)cc3O)n2-c2c(C(=O)c3ccc(C(F)(F)F)cc3O)[nH]c(Cl)c2Cl)s1 | selectivity ratio | = | 0.57
CN(C)CCn1nnnc1Sc1c(Cl)cc(C(=O)c2ccc(C(F)(F)F)cc2O)n1-c1c(C(=O)c2ccc(C(F)(F)F)cc2O)[nH]c(Cl)c1Cl | selectivity ratio | = | 1.67

====

# ASSAY PROTOCOL: Selectivity index, ratio of CC50 for […] to IC50 for JEV-SA14 infected in […]
# Format: toxicity, cell-based
# TEST CONDITIONS: read-out: Ratio CC50/IC50
# maps each entry to its selectivity ratio
MEASURED PROPERTY: selectivity ratio

MOLECULE | MEASURED PROPERTY | QUAL | REPORTED RESULT
O=C(c1ccc(C(F)(F)F)cc1O)c1[nH]c(Cl)c(Cl)c1-n1c(C(=O)c2ccc(C(F)(F)F)cc2O)cc(Cl)c1SCc1ccccn1 | selectivity ratio | = | 0.61
O=C(c1ccc(C(F)(F)F)cc1O)c1[nH]c(Cl)c(Cl)c1-n1c(C(=O)c2ccc(C(F)(F)F)cc2O)cc(Cl)c1SCCCO | selectivity ratio | = | 6.17
C#C[C@@]1(O)[C@H](O)[C@@H](CO)O[C@H]1n1ccc2c(N)ncnc21 | selectivity ratio | > | 6.47
O=C(c1ccc(C(F)(F)F)cc1O)c1[nH]c(Cl)c(Cl)c1-n1c(C(=O)c2ccc(C(F)(F)F)cc2O)cc(Cl)c1Sc1nc2ccccc2o1 | selectivity ratio | = | 1.44
O=C(c1ccc(C(F)(F)F)cc1O)c1[nH]c(Cl)c(Cl)c1-n1c(C(=O)c2ccc(C(F)(F)F)cc2O)cc(Cl)c1Sc1nc2ccccc2s1 | selectivity ratio | = | 1.68
O=C(c1ccc(C(F)(F)F)cc1O)c1[nH]c(Cl)c(Cl)c1-n1c(C(=O)c2ccc(C(F)(F)F)cc2O)cc(Cl)c1Sc1cnccn1 | selectivity ratio | = | 2.02
O=C(c1ccc(C(F)(F)F)cc1O)c1[nH]c(Cl)c(Cl)c1-n1c(C(=O)c2ccc(C(F)(F)F)cc2O)cc(Cl)c1SCCO | selectivity ratio | = | 2.13
